tested-on: T1, human CD40 on cells (human, UniProt P25942 21-277)
T1 construct: whole, on cells; The cell line used is named in each row's assay; also called hCD40; TNFRSF5
experiment-summary: FACS, CHO-K1/hCD40 cells
endpoint-name: Maximum MFI
The answer consists of two parts: a number and, after it, its unit.

IN: // query Maximum MFI value for entry PR006503 (antibody, human IgG1, kappa, V domains shown, PR003379 variant L:N92G; human IgG1 L234A, L235A, G237A) VH: QVQLVQSGAEVKKPGASVKVSCKASGYTFAGYYMYWVRQAPGQGLEWMGWINPDSGAPTYAQKFQGRVTMTRDTSISTAYMELSRLRSDDTAVYYCAREKIYYGSGNYYPSFDYWGQGTLVTVSS VL: DIQLTQSPSFLSASVGDRVTITCRASQGISSYLAWYQQKPGKAPKLLIYAASTLQSGVPSRFSGSGSGTEFTLTISSLQPEDFATYYCQQLGSYPWTFGQGTKVEIKR
OUT: 84500 MFI

IN: Cool, now PR006502 (antibody, human IgG1, kappa, V domains shown, PR003379 variant L:N92D; human IgG1 L234A, L235A, G237A) VH: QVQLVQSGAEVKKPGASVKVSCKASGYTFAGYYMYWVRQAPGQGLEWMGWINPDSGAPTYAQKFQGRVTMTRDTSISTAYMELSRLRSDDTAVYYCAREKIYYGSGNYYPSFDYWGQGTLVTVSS VL: DIQLTQSPSFLSASVGDRVTITCRASQGISSYLAWYQQKPGKAPKLLIYAASTLQSGVPSRFSGSGSGTEFTLTISSLQPEDFATYYCQQLDSYPWTFGQGTKVEIKR
OUT: 88500 MFI

IN: How about this binder: PR006511 (antibody, human IgG1, kappa, V domains shown, PR003379 variant L:S93N; human IgG1 L234A, L235A, G237A) VH: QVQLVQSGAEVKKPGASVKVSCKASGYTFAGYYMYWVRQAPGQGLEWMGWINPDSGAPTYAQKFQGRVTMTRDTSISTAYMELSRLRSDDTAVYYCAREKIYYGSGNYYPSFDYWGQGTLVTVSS VL: DIQLTQSPSFLSASVGDRVTITCRASQGISSYLAWYQQKPGKAPKLLIYAASTLQSGVPSRFSGSGSGTEFTLTISSLQPEDFATYYCQQLNNYPWTFGQGTKVEIKR
OUT: 79400 MFI
